Assay: self-splicing fitness, log relative to wild type (ln ratio); higher = more splicing; Tetrahymena group I intron in knt gene, E. coli kanamycin selection, DiMSum; sequences stand for … in CUCUCU…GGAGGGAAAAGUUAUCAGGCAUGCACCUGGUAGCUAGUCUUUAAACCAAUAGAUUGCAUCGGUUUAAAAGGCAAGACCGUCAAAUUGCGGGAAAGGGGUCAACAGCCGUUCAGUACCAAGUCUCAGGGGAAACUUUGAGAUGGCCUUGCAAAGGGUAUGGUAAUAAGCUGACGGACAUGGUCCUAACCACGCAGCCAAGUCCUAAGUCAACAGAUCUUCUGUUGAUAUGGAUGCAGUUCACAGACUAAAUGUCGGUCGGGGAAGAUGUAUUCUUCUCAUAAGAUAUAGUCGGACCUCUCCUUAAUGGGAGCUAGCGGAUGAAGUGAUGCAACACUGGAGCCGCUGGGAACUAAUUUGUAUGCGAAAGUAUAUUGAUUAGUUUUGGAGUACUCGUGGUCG;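 also: selection with 25 µg/mL kanamycin versus none on LB agar overnight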
Conditions: 37 °C
Recorded self-splicing fitness (ln), one value per entry.

{"sequence record": "UGACAGCAAUAUUACGGUGA", "self-splicing fitness (ln)": 0.000318}
{"sequence record": "GACUAGCAAUAUUACGAAAG", "self-splicing fitness (ln)": -1.8}
{"sequence record": "AUCCAGCAAUAUUACGCCAA", "self-splicing fitness (ln)": -1.71}
{"sequence record": "GGAUAGCAAUAUUACGAUUU", "self-splicing fitness (ln)": 0.459}
{"sequence record": "CCAGAGCAAUAUUACGCAGC", "self-splicing fitness (ln)": -1.77}
{"sequence record": "AAGAAGCAAUAUUACGAACA", "self-splicing fitness (ln)": -0.0339}
{"sequence record": "AACGAGCAAUAUUACGUGGU", "self-splicing fitness (ln)": -2.94}
{"sequence record": "AACAAGCAAUAUUACGACGG", "self-splicing fitness (ln)": -1.93}
{"sequence record": "CUGGAGCAAUAUUACGGACA", "self-splicing fitness (ln)": -2.45}
{"sequence record": "UUUAAGCAAUAUUACGGGAC", "self-splicing fitness (ln)": -2}
{"sequence record": "ACCGAGCAAUAUUACGGCAA", "self-splicing fitness (ln)": -1.48}
{"sequence record": "ACUCAGCAAUAUUACGUCUG", "self-splicing fitness (ln)": -2.74}
{"sequence record": "GUAUAGCAAUAUUACGUAGG", "self-splicing fitness (ln)": -1.47}
{"sequence record": "CCGGAGCAAUAUUACGAUAC", "self-splicing fitness (ln)": -1.97}
{"sequence record": "UUGUAGCAAUAUUACGACUU", "self-splicing fitness (ln)": 0.769}
{"sequence record": "GCCAAGCAAUAUUACGUGCA", "self-splicing fitness (ln)": -0.541}
